Tested on: MS2 coat protein
Test: apparent KD of MS2 coat protein; designed switch direction (-1 OFF switch, 1 ON switch): -1; higher = weaker reporter binding
Settings: input ligand: FMN 200 uM
attribute_measured: apparent KD of MS2 coat protein
The answer consists of two parts: a number and, after it, its unit.

Record summary for UGAGCAACAGGAUAUAUAUGGCGACCGUGAGGUCGAAGGUUACAUGAGGAUCACCCAUGUAGAAGGGUUGUUCU [Mat - Exclusion 2 - JL Mod - D16] (Eterna round: R97, puzzle: Exclusion 2) : reported apparent KD of MS2 coat protein = 279 nM

Record summary for CCGUGCACGCUGCGGUCCUACAUGAGGAUCACCCAUGUGGUCCGGUGGCGUGGGUCGCCGGACUUGGCUCGUCUUGU [salish99_S_TOV1_R5_017] (Eterna round: R97, puzzle: Sensor, turn-off variant 1) : reported apparent KD of MS2 coat protein = 35.1 nM

Record summary for CUCAUGCCUGAGGAUAUGCUGUACAAAAGUACUGCAGAAGGUGGAACAUGAGGAUCACCCAUGUGGCGAAAGCC [Omei Ex G4] (Eterna round: R97, puzzle: Exclusion 6) : reported apparent KD of MS2 coat protein = 253 nM

Record summary for AGUUAUUCAGGAUAUGGUGUGUUAUACAUGAGGAUCACCCAUGUGGGUCAUGGUUAGGCCUCAGAAGGGAAUGUUA [salish99_ex5_r4_125] (Eterna round: R97, puzzle: Exclusion 5) : reported apparent KD of MS2 coat protein = 796 nM

Record summary for GGGUGCAGGCUGAGGUCCUACAUGAGGAUCACCCAUGUGGUCCGGUGACGUGGGUCGCCGGACUUGGCUCGUCUUGU [salish99_S_TOV1_R5_012] (Eterna round: R97, puzzle: Sensor, turn-off variant 1) : reported apparent KD of MS2 coat protein = 39 nM

Record summary for UUAUACAAGCAAAGAUCCCACAUGAGGAUCACCCAUGUGCUCGUCUUAUAAGGUACUGUGACGAAAGUCACGGUACC [Eli 87 + Mat D67 6] (Eterna round: R97, puzzle: Sensor, turn-off variant 1) : reported apparent KD of MS2 coat protein = 42.3 nM

Origin of values: the supplement of paper PMC9170038
